test system: 695427-040-R-J1-PDC complex spheroid viability; test: Anticancer human tumor 695427-040-R-J1-PDC patient-derived colon adenocarcinoma cell line growth inhibition [POLQ]; settings: second compound 3.16 µM; first compound 10 µM; active compounds read low
Please assign N whenever viability, T/C is at or above 80%, and Y whenever it is below.

| molecule | class_name |
| --- | --- |
| Nc1ccn(C2OC(CO)C(O)C2(F)F)c(=O)n1 (stereo not given) + COC1C(OC(N)=O)C(O)C(Oc2ccc3c(O)c(NC(=O)c4ccc(O)c(CC=C(C)C)c4)c(=O)oc3c2C)OC1(C)C | Y |
| COc1cc(C2c3cc4c(cc3C(OC3OC5COC(C)OC5C(O)C3O)C3COC(=O)C23)OCO4)cc(OC)c1O (stereo not given) + COC1C(OC(N)=O)C(O)C(Oc2ccc3c(O)c(NC(=O)c4ccc(O)c(CC=C(C)C)c4)c(=O)oc3c2C)OC1(C)C | N |
| CC(C)n1c(=O)n(C)c2cnc3cc(F)c(-c4ccc(OCCCN5CCCCC5)nc4)cc3c21 + Cc1cccc(N(C)C(=O)C2C(O)CCN2c2nc(C)cc(C(F)(F)F)c2C#N)c1 | Y |
| COc1cc2cc(C(=O)CCC(=O)O)sc2cc1OC + Nc1ccc(C#CCN(C(=O)Cc2ncc(C(F)(F)F)cc2C(F)(F)F)c2ccc(F)cc2)nn1 | N |
| CCc1cc2c(N3CCc4c(cc(Cn5ccnc5)cc4-c4cn(C)nc4C(F)(F)F)C3=O)ccnc2c(OC)n1 + Cc1cccc(N(C)C(=O)C2C(O)CCN2c2nc(C)cc(C(F)(F)F)c2C#N)c1 | N |

---

system: 695427-040-R-J1-PDC complex spheroid viability; test: Anticancer human tumor 695427-040-R-J1-PDC cell line growth inhibition [POLQ]; settings: second compound 0.0316 µM; first compound 0.00316 µM; active compounds read low;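 note: spheroids exposed to compounds for seven days; 100% = DMSO vehicle control viability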

| compound | viability, T/C (%) |
| --- | --- |
| Cn1ncnc1[C@H]1c2n[nH]c(=O)c3cc(F)cc(c23)N[C@@H]1c1ccc(F)cc1 + Cc1cccc(N(C)C(=O)C2C(O)CCN2c2nc(C)cc(C(F)(F)F)c2C#N)c1 | 102 |
| Cn1ncnc1[C@H]1c2n[nH]c(=O)c3cc(F)cc(c23)N[C@@H]1c1ccc(F)cc1 + Nc1ccc(C#CCN(C(=O)Cc2ncc(C(F)(F)F)cc2C(F)(F)F)c2ccc(F)cc2)nn1 | 109 |
| CC[C@@]1(O)C(=O)OCc2c1cc1n(c2=O)Cc2cc3c(CN(C)C)c(O)ccc3nc2-1 + Nc1ccc(C#CCN(C(=O)Cc2ncc(C(F)(F)F)cc2C(F)(F)F)c2ccc(F)cc2)nn1 | 102 |

---

test system: 695427-040-R-J1-PDC complex spheroid viability; assay: Anticancer human tumor 695427-040-R-J1-PDC cell line growth inhibition [POLQ]; details: second compound 0.0316 µM; first compound 10 µM; active compounds read low;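 note: spheroids exposed to compounds for seven days; 100% = DMSO vehicle control viability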
Please assign FALSE whenever viability, T/C is at or above 80%, and TRUE whenever it is below.

| molecule | class_name |
| --- | --- |
| CC(C)n1c(=O)n(C)c2cnc3cc(F)c(-c4ccc(OCCCN5CCCCC5)nc4)cc3c21 + COC1C(OC(N)=O)C(O)C(Oc2ccc3c(O)c(NC(=O)c4ccc(O)c(CC=C(C)C)c4)c(=O)oc3c2C)OC1(C)C | FALSE |
| COc1cccc2c1C(=O)c1c(O)c3c(c(O)c1C2=O)CC(O)(C(=O)CO)CC3OC1CC(N)C(O)C(C)O1 (stereo not given) + Nc1ccc(C#CCN(C(=O)Cc2ncc(C(F)(F)F)cc2C(F)(F)F)c2ccc(F)cc2)nn1 | TRUE |
| CC(C)n1c(=O)n(C)c2cnc3cc(F)c(-c4ccc(OCCCN5CCCCC5)nc4)cc3c21 + Cc1cccc(N(C)C(=O)C2C(O)CCN2c2nc(C)cc(C(F)(F)F)c2C#N)c1 | TRUE |
| C=CC(=O)N1CCN(c2nc(=O)n(-c3c(C)ccnc3C(C)C)c3nc(-c4c(O)cccc4F)c(F)cc23)C(C)C1 (stereo not given) + COC1C(OC(N)=O)C(O)C(Oc2ccc3c(O)c(NC(=O)c4ccc(O)c(CC=C(C)C)c4)c(=O)oc3c2C)OC1(C)C | FALSE |
